tested-system: HIV-1 integrase (Human immunodeficiency virus type 1 group M subtype B)
assay-info: HIV-1 integrase inhibition assay (radiolabeled duplex substrate corresponding to the U5 end of the HIV LTR)
Type: biochemical
IC50 values by entry
property-label: IC50

compound_structure_string=Nc1ccc(C(=O)N[C@@H](Cc2ccc(O)c(O)c2)C(=O)O)cc1O tested_system="HIV-1 integrase (Human immunodeficiency virus type 1 group M subtype B)" property_label=IC50 reported_measurement="> 5 µM"
compound_structure_string=C[C@@H](OCc1ccccc1)[C@H](NC(=O)c1ccc(O)c(O)c1)C(=O)NCCc1ccc(O)c(O)c1 tested_system="HIV-1 integrase (Human immunodeficiency virus type 1 group M subtype B)" property_label=IC50 reported_measurement="> 5 µM"
compound_structure_string=COc1ccc(OC)c(C=CC(=O)N[C@@H](CO)C(=O)NCCc2ccc(O)c(O)c2)c1 tested_system="HIV-1 integrase (Human immunodeficiency virus type 1 group M subtype B)" property_label=IC50 reported_measurement="> 10 µM"
